Origin of the recorded values: paper PMC5567267

MEASURED_TARGET: PKD2 (Homo sapiens, UniProt Q9BZL6)
Construct: made in house; host or cells: HEK293T cells, transient transfection with pDEST27-PRKD2, stimulated with 500 nM PDB before lysis
Sequence (Q9BZL6 whole entry): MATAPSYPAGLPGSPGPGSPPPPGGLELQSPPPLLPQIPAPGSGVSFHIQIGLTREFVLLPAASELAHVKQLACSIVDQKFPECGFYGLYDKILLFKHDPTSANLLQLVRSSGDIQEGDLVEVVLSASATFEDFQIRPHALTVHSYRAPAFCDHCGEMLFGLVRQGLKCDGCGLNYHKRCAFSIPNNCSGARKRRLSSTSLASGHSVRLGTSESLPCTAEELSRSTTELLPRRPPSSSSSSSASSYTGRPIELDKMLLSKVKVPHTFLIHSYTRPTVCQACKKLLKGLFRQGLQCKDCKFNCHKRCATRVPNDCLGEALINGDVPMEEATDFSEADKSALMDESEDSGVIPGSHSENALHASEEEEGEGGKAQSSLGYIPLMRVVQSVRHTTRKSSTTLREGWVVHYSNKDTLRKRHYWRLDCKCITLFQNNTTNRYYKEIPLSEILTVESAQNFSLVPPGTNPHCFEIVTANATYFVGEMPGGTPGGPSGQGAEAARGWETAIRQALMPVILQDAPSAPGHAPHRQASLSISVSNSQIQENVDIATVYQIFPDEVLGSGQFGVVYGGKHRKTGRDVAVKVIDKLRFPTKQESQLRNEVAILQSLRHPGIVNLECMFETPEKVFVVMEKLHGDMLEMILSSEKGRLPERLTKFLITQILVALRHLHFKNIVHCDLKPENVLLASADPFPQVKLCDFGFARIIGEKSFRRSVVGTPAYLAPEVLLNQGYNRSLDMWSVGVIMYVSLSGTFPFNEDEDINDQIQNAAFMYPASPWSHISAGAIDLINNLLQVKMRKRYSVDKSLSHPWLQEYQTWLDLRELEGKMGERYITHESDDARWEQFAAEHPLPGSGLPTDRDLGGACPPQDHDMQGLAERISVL
TEST_METHOD_NOTES: PKD2 screening assay (in vitro radiometric kinase assay)
Type: biochemical
TEST_CONTEXT: in vitro potency as stated in the conclusions
RECORDED_ENDPOINT: IC50

INPUT: State the recorded IC50 for this entry: CC(C)(C)n1nc(-c2c[nH]c3ccccc23)c2c(N)ncnc21 [Compound 18]
OUTPUT: ~33 nM

----------
MEASURED_TARGET: PKD2 (Homo sapiens, UniProt Q9BZL6)
Construct: made in house; host or cells: HEK293T cells, transient transfection with pDEST27-PRKD2, stimulated with 500 nM PDB before lysis
TEST_METHOD_NOTES: PKD2 screening assay (in vitro radiometric kinase assay)
Type: biochemical
TEST_CONTEXT: 10 min; compound at 1 μM; PDB stimulated GST-PKD2, Syntide-2, 25µM ATP; relative to no inhibitor (DMSO); read-out: % PKD 2 activity remaining (1 μM) (Average ± SD)
Kindly apply the following: fulfilled if remaining activity at 1 µM is less than 50%, not fulfilled in every other case.

INPUT: Lab note: confirm whether the reported remaining activity at 1 µM for this compound is below 50%, equality not counting. compound: `Cn1nc(Cc2cccc(Cl)c2)c2c(N)ncnc21`
OUTPUT: not fulfilled

INPUT: Lab note: confirm whether the reported remaining activity at 1 µM for this compound is below 50%, equality not counting. compound: `CC(C)(C)n1nc(Cc2ccccc2Cl)c2c(N)ncnc21`
OUTPUT: fulfilled

INPUT: Lab note: confirm whether the reported remaining activity at 1 µM for this compound is below 50%, equality not counting. compound: `CC(C)(C)n1nc(-c2cccc3ccccc23)c2c(N)ncnc21`
OUTPUT: fulfilled

INPUT: Lab note: confirm whether the reported remaining activity at 1 µM for this compound is below 50%, equality not counting. compound: `CC(C)(C)n1nc(-c2c[nH]c3ccccc23)c2c(N)ncnc21`
OUTPUT: fulfilled

INPUT: Lab note: confirm whether the reported remaining activity at 1 µM for this compound is below 50%, equality not counting. compound: `CC(C)(C)n1nc(CCCc2ccccc2)c2c(N)ncnc21`
OUTPUT: not fulfilled

INPUT: Lab note: confirm whether the reported remaining activity at 1 µM for this compound is below 50%, equality not counting. compound: `CC(C)(C)n1nc(Cc2ccccc2)c2c(N)ncnc21`
OUTPUT: fulfilled

INPUT: Lab note: confirm whether the reported remaining activity at 1 µM for this compound is below 50%, equality not counting. compound: `CC(C)(C)n1nc(-c2cc3ccccc3s2)c2c(N)ncnc21`
OUTPUT: not fulfilled
